Biological target: full-length beta-Catenin (Uniprot ID P35222) (Homo sapiens (Human)) (UniProt P35222)
Sequence (P35222 2-781 limits assumed): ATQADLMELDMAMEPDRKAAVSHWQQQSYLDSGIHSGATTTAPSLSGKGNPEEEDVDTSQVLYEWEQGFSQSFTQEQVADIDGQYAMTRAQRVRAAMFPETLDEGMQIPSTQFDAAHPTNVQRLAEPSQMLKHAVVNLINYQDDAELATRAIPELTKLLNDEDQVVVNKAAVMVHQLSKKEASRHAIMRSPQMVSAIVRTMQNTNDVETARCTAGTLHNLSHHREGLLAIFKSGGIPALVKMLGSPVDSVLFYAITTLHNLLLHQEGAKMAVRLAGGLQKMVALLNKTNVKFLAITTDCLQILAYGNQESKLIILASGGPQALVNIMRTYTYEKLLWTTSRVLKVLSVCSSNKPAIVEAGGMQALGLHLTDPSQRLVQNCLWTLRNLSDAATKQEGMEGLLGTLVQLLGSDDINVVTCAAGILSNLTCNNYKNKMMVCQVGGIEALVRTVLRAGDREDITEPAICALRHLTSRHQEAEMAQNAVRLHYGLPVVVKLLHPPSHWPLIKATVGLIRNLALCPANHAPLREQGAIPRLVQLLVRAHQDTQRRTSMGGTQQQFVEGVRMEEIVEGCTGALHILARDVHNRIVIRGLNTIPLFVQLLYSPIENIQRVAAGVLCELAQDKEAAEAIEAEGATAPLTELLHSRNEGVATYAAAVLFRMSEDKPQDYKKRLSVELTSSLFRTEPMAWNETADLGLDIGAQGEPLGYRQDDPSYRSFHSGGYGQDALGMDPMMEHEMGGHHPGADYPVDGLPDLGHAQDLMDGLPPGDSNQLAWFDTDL
Assay: fluorescence polarization competition; full-length beta-catenin, 5FAM-TCF4(10-53) probe as competitor
recorded metric: IC50 (nM)

Some solved cases for reference:
[
  {
    "substance": "Ac-PL3-Asp-Npg-B5-Asp-[CH2CCpCO2H]TriAzDap-Ala-Ala-Phe-Leu-PyrS2-3Thi-BztA-Gln-NH2 (peptide)",
    "recorded metric": "IC50",
    "unit info": "nM",
    "numeric value": 5
  },
  {
    "substance": "Ac-PL3-Asp-Npg-B5-Asp-3COOHF-Ala-Ala-Phe-Leu-PyrS2-2F3MeF-2F3MeW-Gln-NH2 (peptide)",
    "recorded metric": "IC50",
    "unit info": "nM",
    "numeric value": 6290
  }
]

P: Ac-PL3-Asp-Npg-B5-Asp-3COOHF-Ala-Ala-Phe-Leu-PyrS2-2F3MeF-SbMe2NapA-Gln-NH2 (peptide)
Q: Ac-PL3-Asp-Npg-B5-Asp-[CH2CChCO2H]TriAzDap-Ala-Ala-Phe-Leu-PyrS2-3Thi-BztA-Gln-NH2 (peptide)
Lower value of IC50 belongs to which: P or Q ? Use the label to indicate which entry you chose.
Q

Data provenance: patent US20240116985A1
